- Test system: gastric mucosal lesions produced by ethanol
- assay_method_text: prevention of gastric mucosal lesions produced by ethanol in rats (cytoprotective/anti-ulcer, Robert et al.)
- Format: in vivo
- stated_conditions: Rattus norvegicus; oral, usually 1 hour before ethanol; male Sprague-Dawley rats; calculated from a series of dosage levels; read-out: ED50 (dose at which half the animals did not develop lesions significantly different from the control group)
- Description: The rats were placed in individual cages and denied water 2 hours or more before testing. At a fixed time before administration of ethanol (usually 1 hour), the animals were orally administered either the test compound or its water-carboxymethylcellulose vehicle. […] The results of these studies are given at the end of each example illustrating the preparation of the tested compound, supra, as the percent inhibition or ED50 where the latter value was determined.
Property: ED50; scope: individual compounds

>  <compound>
CC1(C)OC(/C=C/c2ccncc2)=CC1=O

>  <target_or_system>
gastric mucosal lesions produced by ethanol

>  <ED50 (mg/kg)>
4

$$$$
>  <compound>
CC1(C)OC(/C=C/c2cccnc2)=CC1=O

>  <target_or_system>
gastric mucosal lesions produced by ethanol

>  <ED50 (mg/kg)>
9.3

$$$$
>  <compound>
CC1(c2ccccc2)OC(/C=C/c2ccccn2)=CC1=O (stereo not shown)

>  <target_or_system>
gastric mucosal lesions produced by ethanol

>  <ED50 (mg/kg)>
6

$$$$
>  <compound>
CC1(c2ccc(F)cc2)OC(/C=C/c2ccccn2)=CC1=O (stereo not shown)

>  <target_or_system>
gastric mucosal lesions produced by ethanol

>  <ED50 (mg/kg)>
3.5

$$$$
>  <compound>
CC1(C)OC(/C=C/c2ccc(F)cc2)=CC1=O

>  <target_or_system>
gastric mucosal lesions produced by ethanol

>  <ED50 (mg/kg)>
11

$$$$
>  <compound>
CC1(C)OC(/C=C/c2ccc(C#N)cc2)=CC1=O

>  <target_or_system>
gastric mucosal lesions produced by ethanol

>  <ED50 (mg/kg)>
15

$$$$
>  <compound>
CC1(C)OC(/C=C/c2ccc(S(C)(=O)=O)cc2)=CC1=O

>  <target_or_system>
gastric mucosal lesions produced by ethanol

>  <ED50 (mg/kg)>
10.6

$$$$
>  <compound>
CC1(C)OC(/C=C/c2ccc(Cl)cc2)=CC1=O

>  <target_or_system>
gastric mucosal lesions produced by ethanol

>  <ED50 (mg/kg)>
10.3

$$$$
>  <compound>
CC1(c2ccccc2)OC(/C=C/c2cccnc2)=CC1=O (stereo not shown)

>  <target_or_system>
gastric mucosal lesions produced by ethanol

>  <ED50 (mg/kg)>
5

$$$$
>  <compound>
CC1(C)OC(/C=C/c2ccnc3ccccc23)=CC1=O

>  <target_or_system>
gastric mucosal lesions produced by ethanol

>  <ED50 (mg/kg)>
2.5

$$$$
>  <compound>
CC1(C)OC(/C=C/c2ccccn2)=CC1=O

>  <target_or_system>
gastric mucosal lesions produced by ethanol

>  <ED50 (mg/kg)>
9

$$$$
>  <compound>
CC1(C)OC(/C=C/c2ccsc2)=CC1=O

>  <target_or_system>
gastric mucosal lesions produced by ethanol

>  <ED50 (mg/kg)>
4

$$$$
>  <compound>
CC1(C)OC(/C=C/c2cc(Cl)cc(Cl)c2)=CC1=O

>  <target_or_system>
gastric mucosal lesions produced by ethanol

>  <ED50 (mg/kg)>
9

$$$$
